The entries below are paired with their reported PAMPA_R3.
EXPERIMENTAL SETUP: PAMPA
Where a SMILES comes first, the peptide text is derived from it. [ ]: non-standard residue; d: D form. NMeF = CN[C@@H](Cc1ccccc1)C(=O)O; dNMeF = CN[C@H](Cc1ccccc1)C(=O)O; dNMeA = CN[C@H](C)C(=O)O
QUANTITY: PAMPA_R3

INSERT INTO assay_data (compound, quantity, observed_measurement) VALUES
  ('CC[C@@H](C)[C@H]1NC(=O)[C@H]2CCCN2C(=O)[C@@H]2CCCN2C(=O)[C@@H]([C@H](C)CC)NC(=O)[C@@H](Cc2ccccc2)NC(=O)[C@@H](Cc2ccccc2)N(C)C(=O)[C@@H]2CCCN2C(=O)[C@@H](C(C)C)NC1=O [Design D8.33, DPHE DILE PRO DPRO DILE DVAL PRO *DPHE] (cyclo(P[dNMeF][dF][dI]P[dP][dI][dV]))', 'PAMPA_R3', '1.01E-05'),
  ('CC[C@H](C)[C@@H]1NC(=O)[C@H](Cc2ccccc2)N(C)C(=O)[C@H]2CCCN2C(=O)[C@H]([C@@H](C)CC)NC(=O)[C@@H](C)N(C)C(=O)[C@@H](C)NC(=O)[C@@H]2CCCN2C(=O)[C@H]2CCCN2C(=O)[C@H](CC(C)C)NC(=O)[C@@H](CC(C)C)NC(=O)[C@H](CC(C)C)NC(=O)[C@H]2CCCN2C1=O [Design D12.6] (cyclo([dA][dNMeA]I[dP][NMeF]I[dP]L[dL]L[dP]P))', 'PAMPA_R3', '1.22E-06');

---

MEASUREMENT NOTES: in vitro
EXPERIMENTAL SETUP: PAMPA, PAMPA_Papp_Avg
Where a SMILES comes first, the peptide text is derived from it. [ ]: non-standard residue; d: D form. NMeF = CN[C@@H](Cc1ccccc1)C(=O)O; dNMeF = CN[C@H](Cc1ccccc1)C(=O)O; NMeL = CN[C@@H](CC(C)C)C(=O)O; dNMeL = CN[C@H](CC(C)C)C(=O)O; NMeM = CN[C@@H](CCSC)C(=O)O; dNMeA = CN[C@H](C)C(=O)O
The entries below are paired with their reported Papp.
QUANTITY: Papp (×10⁻⁶ cm/s)

INSERT INTO assay_data (compound, unit_label, observed_measurement) VALUES
  ('CC[C@H](C)[C@@H]1NC(=O)[C@@H](CC(C)C)NC(=O)[C@H](CC(C)C)N(C)C(=O)[C@H](Cc2ccccc2)NC(=O)CN(C)C(=O)[C@@H]2CCCN2C(=O)[C@H](C(C)C)NC(=O)[C@H](Cc2ccccc2)N(C)C(=O)[C@H]2CCCN2C(=O)[C@H](CC(C)C)NC1=O (single isomer, unassigned) [Design D10.1.p1]', '×10⁻⁶ cm/s', 3.92),
  ('CC[C@H](C)[C@@H]1NC(=O)[C@@H](C)N(C)C(=O)[C@@H](C)N(C)C(=O)[C@@H]2CCCN2C(=O)[C@H](CC(C)C)NC(=O)[C@H](CC(C)C)NC(=O)[C@@H](CC(C)C)NC(=O)[C@@H]2CCCN2C(=O)[C@H]2CCCN2C1=O [Design D9.11] (cyclo([dL]LLP[dNMeA][dNMeA]I[dP]P))', '×10⁻⁶ cm/s', 0.223),
  ('CC[C@H](C)[C@@H]1NC(=O)[C@@H](C)N(C)C(=O)[C@H]2CCCN2C(=O)[C@H]2CCCN2C(=O)[C@H](Cc2ccccc2)NC(=O)[C@@H](CC(C)C)NC(=O)[C@@H](CC(C)C)N(C)C(=O)[C@@H]2CCCN2C1=O [Design D8.17, PRO *DLEU DLEU PHE DPRO DPRO *DALA ILE] (cyclo(F[dP][dP][dNMeA]IP[dNMeL][dL]))', '×10⁻⁶ cm/s', 0.72),
  ('CC(C)C[C@@H]1C(=O)N[C@@H](C(C)C)C(=O)N[C@@H](C)C(=O)N2CCC[C@H]2C(=O)N2CCC[C@@H]2C(=O)N[C@@H](C(C)C)C(=O)N[C@@H](C)C(=O)N(C)[C@@H](CC(C)C)C(=O)N1C [Design D8.22, ALA PRO DPRO VAL ALA *LEU *DLEU VAL] (cyclo(A[NMeL][dNMeL]VAP[dP]V))', '×10⁻⁶ cm/s', 0.215),
  ('CC(C)C[C@@H]1NC(=O)[C@@H](C)NC(=O)[C@H]2CCCN2C(=O)[C@@H]2CCCN2C(=O)[C@@H](C(C)C)NC(=O)[C@@H](CC(C)C)N(C)C(=O)[C@H]2CCCN2C(=O)[C@H]2CCCN2C(=O)[C@@H](C)N(C)C(=O)[C@H](CC(C)C)N(C)C(=O)[C@@H](Cc2ccccc2)NC1=O [Design D11.16] (cyclo(L[dF][NMeL][dNMeA][dP][dP][dNMeL][dV]P[dP][dA]))', '×10⁻⁶ cm/s', 0.43),
  ('CSCC[C@H]1C(=O)N(C)[C@H](C)C(=O)N[C@H](CC(C)C)C(=O)N2CCC[C@@H]2C(=O)N2CCC[C@H]2C(=O)N[C@@H](CC(C)C)C(=O)N2CCC[C@H]2C(=O)N2CCC[C@@H]2C(=O)N[C@H](C(C)C)C(=O)N1C [Design D9.24] (cyclo(LP[dP][dV][NMeM][dNMeA][dL][dP]P))', '×10⁻⁶ cm/s', 0.0869),
  ('CC[C@@H](C)[C@H]1NC(=O)[C@H](CC(C)C)N(C)C(=O)[C@H]2CCCN2C(=O)[C@@H](Cc2ccccc2)N(C)C(=O)[C@@H](Cc2ccccc2)N(C)C(=O)[C@H](CC(C)C)N(C)C(=O)[C@@H](C(C)C)NC(=O)[C@@H]2CCCN2C(=O)[C@H](C)NC1=O [Design D9.9] (cyclo(AP[dV][NMeL][dNMeF][dNMeF][dP][NMeL][dI]))', '×10⁻⁶ cm/s', 0.575),
  ('CC(C)C[C@@H]1C(=O)N(C)[C@H](Cc2ccccc2)C(=O)N(C)[C@@H](CC(C)C)C(=O)N[C@H](C(C)C)C(=O)N[C@H](C)C(=O)N2CCC[C@@H]2C(=O)N2CCC[C@H]2C(=O)N[C@H](C)C(=O)N1C [Design D8.20, PRO DALA *DLEU *DPHE *LEU DVAL DALA DPRO] (cyclo([dA][dNMeL][dNMeF][NMeL][dV][dA][dP]P))', '×10⁻⁶ cm/s', 1.08),
  ('CC[C@H](C)[C@@H]1NC(=O)[C@@H]2CCCN2C(=O)[C@H]2CCCN2C(=O)[C@@H](CC(C)C)NC(=O)[C@@H](CC(C)C)N(C)C(=O)[C@@H]2CCCN2C(=O)[C@H](Cc2ccccc2)N(C)C(=O)[C@@H](Cc2ccccc2)NC1=O [Design D8.14, PRO ILE DPHE*PHE PRO *DLEU DLEU DPRO] (cyclo(I[dF][NMeF]P[dNMeL][dL][dP]P))', '×10⁻⁶ cm/s', 0.971),
  ('CC(C)C[C@@H]1NC(=O)[C@@H](CC(C)C)NC(=O)[C@H]2CCCN2C(=O)[C@H](CC(C)C)NC(=O)[C@@H](CC(C)C)NC(=O)[C@H](CC(C)C)NC(=O)[C@@H]2CCCN2C(=O)[C@@H](C)NC1=O [Design D8.1, DLEU LEU DPRO DLEU LEU DALA PRO LEU] (cyclo(L[dA]PL[dL]L[dP][dL]))', '×10⁻⁶ cm/s', 6.94),
  ('CC(C)C[C@@H]1NC(=O)[C@@H](Cc2ccccc2)NC(=O)[C@@H](CC(C)C)N(C)C(=O)[C@@H]2CCCN2C(=O)[C@H](C)NC(=O)[C@@H](CC(C)C)N(C)C(=O)[C@@H]2CCCN2C(=O)[C@H](CC(C)C)N(C)C(=O)[C@H](CC(C)C)N(C)C(=O)[C@H](C(C)C)NC1=O [Design D10.20] (cyclo(AP[dNMeL][dF]LV[NMeL][NMeL]P[dNMeL]))', '×10⁻⁶ cm/s', 2.59),
  ('CC(C)C[C@H]1NC(=O)[C@@H]2CCCN2C(=O)[C@@H]2CCCN2C(=O)[C@@H](C)NC(=O)[C@@H](Cc2ccccc2)N(C)C(=O)[C@H]2CCCN2C1=O [Design D6.4, DPRO *DPHE DALA PRO PRO DLEU] (cyclo(PP[dL][dP][dNMeF][dA]))', '×10⁻⁶ cm/s', 13.9);
